# measured.target: Scavenger receptor class B member 1 (Mus musculus)
# experiment.description: mouse SR-BI DiI-HDL uptake blockers – ldlA[mSR-BI] cells, fluorescence, single point, primary screen (AID 488896);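 also: 0% = median of neutral control wells and 100% = median of positive control wells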
# condition.details: ldlA[mSR-BI] CHO cells, 3 h, at 12.5 µM
Out of some 320,000 compounds screened, about 3,100 (0.97%) were called active.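 The calls were made as follows: active = mean replicate inhibition of at least 70% and a set share of replicates each scoring 70 or more; inconclusive = meets just one of the two criteria; inactive = fails both criteria.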 This excerpt belongs to a sample that is enriched for actives.
Respond using exactly one of the listed classes: active, inactive

// query Could you check what this test reported for `NC(=O)C1(Nc2ccccc2Cl)CCCC1` ?
// result inactive

// query Hi, sorry to bother you, what did the test record for CCOC(=O)CCC(NC(=O)c1ccc(CNc2nc3cc(C(F)(F)F)ccc3nc2C(=O)OCC)cc1)C(=O)OCC (stereo not given) ?
// result inactive

// query Tell me the recorded outcome of this test for OCC(O)C1OCOC(C(O)CO)C1O (stereo not given) .
// result inactive

// query Query: recorded result category for CCC(=O)Nc1ccc(S(=O)(=O)NCC2CCCO2)cc1 (stereo not given) in this test
// result inactive

// query // return assay outcome for `CCOc1ccc(-c2nnn(CC(=O)N3CCN(c4ccc(F)cc4)CC3)n2)cc1OCC`
// result inactive

// query Given `COc1ccc(NS(=O)(=O)c2ccc(N3CCOCC3)c(NC(=O)/C=C/C(=O)O)c2)cc1` , state the outcome it received in this test.
// result inactive

// query Assay result, entry Cc1ccc(NC(=O)c2ccc(S(=O)(=O)NCC3CCCO3)cc2)cc1C (stereo not given) — outcome?
// result inactive

// query For `O=C(OC12CC3CC(CC(C3)C1)C2)c1ccc(NCc2cc(O)ccc2O)cc1` , which call appears in the assay record?
// result inactive

// query What is the recorded call for this compound in the test? `CCOc1ccc(-c2nnn(CC(=O)N3CCN(c4ccc(OC)cc4)CC3)n2)cc1OCC`
// result active

// query What was the test verdict on CCOc1ccc(C(=O)Nc2ccc(S(=O)(=O)NCC3CCCO3)cc2)cc1OCC (stereo not given) ?
// result active

* * *

# measured.target: Scavenger receptor class B member 1 (Mus musculus) (UniProt Q61009)
# Sequence (Q61009 whole entry, looked up): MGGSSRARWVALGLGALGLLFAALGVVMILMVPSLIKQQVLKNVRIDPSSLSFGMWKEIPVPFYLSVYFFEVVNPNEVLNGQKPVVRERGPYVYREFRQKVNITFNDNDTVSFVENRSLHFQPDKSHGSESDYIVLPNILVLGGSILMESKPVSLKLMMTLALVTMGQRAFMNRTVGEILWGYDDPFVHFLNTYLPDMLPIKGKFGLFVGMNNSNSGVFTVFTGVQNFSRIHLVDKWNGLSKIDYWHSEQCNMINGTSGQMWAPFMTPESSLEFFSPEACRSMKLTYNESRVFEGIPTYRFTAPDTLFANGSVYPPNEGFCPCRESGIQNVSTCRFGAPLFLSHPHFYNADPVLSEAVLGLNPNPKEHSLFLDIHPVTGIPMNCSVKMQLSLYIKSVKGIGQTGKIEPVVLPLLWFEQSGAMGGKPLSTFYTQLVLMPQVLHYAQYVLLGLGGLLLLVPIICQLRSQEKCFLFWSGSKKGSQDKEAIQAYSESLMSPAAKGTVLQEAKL
# experiment.description: mouse SR-BI DiI-HDL uptake blockers – ldlA[mSR-BI] cells, fluorescence, single point, primary screen (AID 488896);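 also: 0% = median of neutral control wells and 100% = median of positive control wells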
# condition.details: ldlA[mSR-BI] CHO cells, 3 h, at 12.5 µM, hits give high values
The whole screen tested about 320,000 compounds, of which about 3,100 (0.97%) were called active. For the sample, actives were picked, then their nearest neighbours and some compounds at random.
Give measured inhibition for each item. Keep answers brief.

// query # lookup: inhibition of `COc1ccc(S(=O)(=O)N2CCCCC2)cc1NC(=O)c1cc([N+](=O)[O-])ccc1N1CCOCC1`
// result 23.2% (inactive)

// query Item `Cc1cccc(NC(=O)Nc2ccc(OCc3ccccc3)cc2)n1` has what recorded inhibition?
// result 17.6% (inactive)

// query Entry `Oc1ccc(-c2nc3ccccc3nc2-c2ccc(O)cc2O)c(O)c1` : reported inhibition = ?
// result 26% (inactive)

// query Fill in: inhibition of `O=C(Nc1c(Br)cc2c(c1Br)Cc1ccccc1-2)C(F)(F)F` is ___
// result 23.8% (inactive)

// query Need inhibition, item O=C(O)C(CCc1ccccn1)c1ccccc1 (stereo unspecified)
// result 11.9% (inactive)

// query What does the data say about its inhibition? Entry: `CCOc1cc(C=NNC(=O)CCCC(=O)NN=Cc2ccc(O)c(OCC)c2)ccc1O`
// result 7.36% (inactive)

// query Need inhibition of `Cc1cc(C)c(C=NNc2nc3c([nH]2)c(=O)n(C)c(=O)n3C)c(C)c1` , thanks.
// result -12.4% (inactive)

// query Which inhibition value is on record for `CCCC(=O)N(CCN1CCOCC1)c1nc2ccc(OCC)cc2s1` ?
// result 40.2% (inactive)

// query What does the record list as inhibition for COc1ccc(CCNC(=O)c2ccc(NC(=O)CC3SC(N4CCCCC4)=NC3=O)cc2)cc1OC (stereo unspecified) ?
// result 66.6% (inactive)

// query Requested field: inhibition. Item: `CC[C@@H]1Cc2cc(O)ccc2C2=C1c1ccc(O)cc1C[C@H]2CC`
// result 76.1% (active)

// query Look up inhibition: `CCCCNCCS(=O)(=O)NCc1ccccc1`
// result -2.76% (inactive)

* * *

# measured.target: Scavenger receptor class B member 1 (Mus musculus)
# experiment.description: mouse SR-BI DiI-HDL uptake blockers – ldlA[mSR-BI] cells, fluorescence, single point, primary screen (AID 488896);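 also: 0% = median of neutral control wells and 100% = median of positive control wells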
# condition.details: ldlA[mSR-BI] CHO cells, 3 h, at 12.5 µM, hits give high values
Screen size: about 320,000 compounds; about 3,100 (0.97%) were called active. The sample as a whole holds a higher share of actives than the screen did.
measured.endpoint: inhibition (%)
Report as a plain number; the unit % is understood.

// query Which inhibition is reported for this compound? CCN1CCC(O)(/C=C/c2ccc(C)cc2)C(C(=O)/C=C/c2ccc(C)cc2)C1 (stereo not drawn)
// result 24.5

// query Suppose we examine the compound `COc1ccc(-c2nc3c(s2)CCc2onc(-c4ccc(Br)cc4)c2-3)cc1` ; what inhibition value has been reported?
// result 58.7

// query Would you mind telling me what inhibition value was observed for `N#CC1(Nc2ccc(-c3ccc(Cl)cc3)cc2)CCCC1` ?
// result 5.44

// query Give its inhibition value. Item: `O=C(c1cccc(S(=O)(=O)N2CCCCCC2)c1)N1CCN(Cc2ccccc2)CC1`
// result 19.3

// query Looking for the measured inhibition of `COc1ccc(NC(=O)C2=NNC(=O)CC2)cc1S(=O)(=O)N1CCCCC1` , can you help?
// result 12.9

// query Suppose we examine the compound `C[C@H](O)[C@@H]1C(=O)N2CCc3ccc(N4CCOCC4)cc3[C@@H]2C[C@@H]1N(C)C(=O)C(C)(C)C` ; what inhibition value has been reported?
// result -2.83

// query Looking for the measured inhibition of Cc1cc(NC(=O)C(C)SCC(=O)Nc2cccc(S(=O)(=O)N3CCCCCC3)c2)no1 (stereo not drawn) , can you help?
// result 41.5

// query inhibition lookup needed for CCCCN1CC(CO)Oc2cccc(F)c2S1(=O)=O (stereo not drawn) , thanks.
// result -10.7

// query # input compound: `COc1cc(O)c2c(=O)c3c(O)c(O)ccc3oc2c1OC` ; wanted: its inhibition
// result 10.1

// query Recorded inhibition of `COc1ccc2nc(NC(=O)c3ccc(Br)s3)sc2c1` , please.
// result 55.7

// query GET /values?readout=inhibition&item= `COc1ccc(OC)c(-c2csc(NC(=O)C3=NNC(=O)CC3)n2)c1`
// result 74.1

// query I would be grateful if you could share the reported inhibition for `COc1ccc(S(=O)(=O)N2CCc3ccccc32)cc1C(=O)Nc1cc(S(C)(=O)=O)ccc1Cl` .
// result 27.5

// query Look up inhibition: C=CCOC(=O)N1CCC2CC1c1cc(-c3ccc(OC)cc3)ccc12 (stereo not drawn)
// result -4.14

* * *

# measured.target: Scavenger receptor class B member 1 (Mus musculus)
# experiment.description: mouse SR-BI DiI-HDL uptake blockers – ldlA[mSR-BI] cells, fluorescence, single point, primary screen (AID 488896);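 also: 0% = median of neutral control wells and 100% = median of positive control wells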
# condition.details: ldlA[mSR-BI] CHO cells, 3 h, at 12.5 µM
The whole screen tested about 320,000 compounds, of which about 3,100 (0.97%) were called active.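 Rule for the calls: active = mean replicate inhibition of at least 70% and a set share of replicates each scoring 70 or more; inconclusive = meets just one of the two criteria; inactive = fails both criteria.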 This is one part of a sample in which actives are shown more often than they occur.
The reply should name one outcome from label 1 for active, label 0 for inactive

// query Hi, sorry to bother you, what did the test record for `Cc1ccc(C)c(S(=O)(=O)N(C)c2ccc(OC(=O)C3CCN(C(=O)c4ccc(F)cc4)CC3)cc2)c1` ?
// result label 0

// query For this compound, state the assay outcome: `O=[N+]([O-])c1cccc(C=NN=Cc2ccccc2O)c1`
// result label 0

// query Could you check what this test reported for O=C1OC(Cc2ccccc2)C(c2ccccc2)C1=O (stereo not given) ?
// result label 0

// query How was `O=C(Nc1ccccc1C(=O)O)c1cc(S(=O)(=O)N2CCCCC2)cs1` classified in this test?
// result label 0

// query Tell me the assay call for `O=S(=O)(Cc1ccc(Cl)cc1Cl)c1ccc(Cl)cc1` please.
// result label 0

// query For this compound, state the assay outcome: `Brc1ccc(-c2csc(N/N=C/c3ccc4c(c3)OCO4)n2)cc1`
// result label 1

// query Please share the test call associated with `Cc1nc2ccccc2c(C(=O)O)c1-c1ccccn1` .
// result label 0

// query For `O=C(O)C(=Cc1ccccc1[N+](=O)[O-])c1ccccc1` , what call appears in the results of this test?
// result label 0

// query Record request — test call for `Cc1cc(C(=O)CSc2nc(N)cc(=O)[nH]2)c(C)n1CCc1ccc(Cl)cc1`
// result label 1

// query Record request — test call for `Cc1ccc(S(=O)(=O)N2CCN(C(=O)COC(=O)/C=C/c3cccc(Cl)c3)CC2)c(C)c1`
// result label 0

// query Recorded call for `CC1(C)Cc2cccc(OCC(N)=O)c2O1` ?
// result label 0

// query Recorded test outcome, item `Cc1nc(Nc2ccccc2C)c2cnn(C)c2n1`
// result label 0

// query I would be grateful if you could indicate the recorded call for `CC(C)(C)c1nnc2sc(SCC(O)=C(C#N)c3nc4ccccc4[nH]3)nn2c1=O` .
// result label 0

// query Assay outcome for `CCCC(=O)N1CCN(c2nnc(-c3ccc(C)cc3)c3ccccc23)CC1` : what was it?
// result label 1

// query Fill in: this test's call for `Cc1cc(C(=O)NNC(=O)c2ccccc2O)c(C)o1` is ___
// result label 0

// query Which outcome was assigned to `COc1ccccc1/C=N/Nc1nc(C)c(C(C)=O)s1` in this test?
// result label 0

// query Entry O=C1C2C3C=CC(C3)C2C(=O)N1c1ncc([N+](=O)[O-])s1 (stereo not given) : call = ?
// result label 0

// query Just curious, what result did `CC(C)c1cc(N=O)cc(C(C)C)c1O` get here?
// result label 0

// query Which outcome did this test record for the compound `O=C(O)c1ccc(S(=O)(=O)c2ccccc2)s1` ?
// result label 0

// query Which result was noted for this compound in the test: `Cc1cccc(NC(=O)c2sc3nc4c(c(-c5ccco5)c3c2N)CCC4)c1`
// result label 1

// query Could you please tell me the result logged for `Cc1ccc(S(=O)(=O)N2CCN(C(=O)COC(=O)c3c(C)cc(C)cc3C)CC2)c(C)c1` in this assay?
// result label 0

// query State the result this test recorded for `Cn1c(=O)[nH]c2c(c(C(=O)O)nn2C)c1=O` .
// result label 0

// query For CC1=C(C)CC(C(=O)NNC(=O)c2ccccc2O)C(C(=O)O)C1 (stereo not given) , which call appears in the assay record?
// result label 0

// query Identify the outcome logged in this assay for the compound shown: `Cc1cccc(NC(=O)c2sc3nc(N4CCOCC4)c4c(c3c2N)CCCC4)c1`
// result label 0

// query Recorded test outcome, item `COc1cccc(/C=N/Nc2cc(C)nc(-c3ccccc3O)n2)c1O`
// result label 1
